# Assay Target: rhesus (Macacca Mulatta) H3 receptor (Macaca mulatta)
# Construct: pcDNA5/FRT/TO (Invitrogen) containing the rhesus monkey (Macacca Mulatta) 445 amino acid H3 receptor
# Sequence (Q865E1 1-445): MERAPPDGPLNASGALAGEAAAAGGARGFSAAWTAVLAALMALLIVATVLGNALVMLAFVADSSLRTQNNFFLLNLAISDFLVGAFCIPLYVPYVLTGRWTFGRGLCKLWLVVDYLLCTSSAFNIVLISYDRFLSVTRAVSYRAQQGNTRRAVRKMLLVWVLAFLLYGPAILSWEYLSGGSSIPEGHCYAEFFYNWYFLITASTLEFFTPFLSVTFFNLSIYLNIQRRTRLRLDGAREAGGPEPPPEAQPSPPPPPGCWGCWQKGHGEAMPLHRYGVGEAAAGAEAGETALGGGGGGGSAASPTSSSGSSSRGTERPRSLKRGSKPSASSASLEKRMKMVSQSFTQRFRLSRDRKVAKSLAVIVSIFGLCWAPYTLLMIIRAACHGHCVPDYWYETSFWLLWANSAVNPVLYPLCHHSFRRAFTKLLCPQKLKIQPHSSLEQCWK
# Assay Details: Rhesus H3 radioligand binding assay ([3H]-methylhistamine displacement, WGA SPA beads)
# Assay Setup: [3H]-methylhistamine 2 nM; membranes of Flp-In T-REx 293 cells expressing rhesus H3; Cheng-Prusoff
# Experimental: Rhesus H3 membranes were prepared from the Flp-In T-REx 293 Cell Line (Invitrogen) stably transfected with pcDNA5/FRT/TO (Invitrogen) containing the rhesus monkey (Macacca Mulatta) 445 amino acid H3 receptor. (Genbank #AY231164). Stably transfected cultures were amplified in tissue culture flasks by standard tissue culture methods and induced to express rhesus H3 by exposure to 500 ng/ml tetracycline (Cellgro) for 24 hours. […]
Quantity: Ki (nM)
Record the value in nM, omitting the unit from your answer.

Known results for compounds:
- Compound: "C[C@H]1CCCN1[C@H]1CCN(c2ccc(N3CCC4(CCOCC4)C3=O)cc2F)C1"
  Assay Target: "rhesus (Macacca Mulatta) H3 receptor (Macaca mulatta)"
  Quantity: "Ki"
  Measure Unit: "nM"
  Assay Result: 2.1
- Compound: "Cc1cc(N2CC[C@H](N3CCC[C@@H]3C)C2)ccc1N1CCCC2(CCOCC2)C1=O"
  Assay Target: "rhesus (Macacca Mulatta) H3 receptor (Macaca mulatta)"
  Quantity: "Ki"
  Measure Unit: "nM"
  Assay Result: 0.38
- Compound: "Cc1cc(N2CCC(N3CCCC3C)C2)ccc1N1CCC2(CCOCC2)C1=O (stereo not shown)"
  Assay Target: "rhesus (Macacca Mulatta) H3 receptor (Macaca mulatta)"
  Quantity: "Ki"
  Measure Unit: "nM"
  Assay Result: 6.2
- Compound: "C[C@H]1CCCN1[C@H]1CCN(c2ccc(N3CCCC4(CCOCC4)C3=O)c(F)c2)C1"
  Assay Target: "rhesus (Macacca Mulatta) H3 receptor (Macaca mulatta)"
  Quantity: "Ki"
  Measure Unit: "nM"
  Assay Result: 0.7
- Compound: "Cc1cc(N2CCC(N3CCC[C@@H]3C)CC2)ccc1N1CCC2(CCOCC2)C1=O"
  Assay Target: "rhesus (Macacca Mulatta) H3 receptor (Macaca mulatta)"
  Quantity: "Ki"
  Measure Unit: "nM"
  Assay Result: 0.7

Give Ki for CCCC1CCCN1C1CCN(c2ccc(N3CCC4(CCOCC4)C3=O)c(CC)c2)CC1 (stereo not shown)
18

Give Ki for Cc1cc(N2CC[C@@H](N3CCC[C@@H]3C)C2)ccc1N1CCC2(CCOCC2)C1=O
4.3

Give Ki for CC(C)C1CCCN1C1CCN(c2ccc(N3CCC4(CCOCC4)C3=O)c(F)c2)C1 (stereo not shown)
76

Give Ki for C[C@H]1CCCN1[C@H]1CCN(c2ccc(N3CCCC4(CCOCC4)C3=O)cc2)C1
0.1

Give Ki for C[C@@H]1CCCN1[C@H]1CCN(c2ccc(N3CCCC4(CCOCC4)C3=O)c(F)c2)C1
1.3
